Target: S1-Fc (SARS-CoV-2, UniProt P0DTC2 16-685)
Experiment: phage ELISA
Item-by-item account of ELISA fold over background
MEASURE: ELISA fold over background (fold over background)

• 1-2 (antibody, V domains shown, also called variant 1-2) VH: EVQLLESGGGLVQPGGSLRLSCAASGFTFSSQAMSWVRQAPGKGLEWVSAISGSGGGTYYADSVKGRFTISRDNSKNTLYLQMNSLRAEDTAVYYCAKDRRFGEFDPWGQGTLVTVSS VL: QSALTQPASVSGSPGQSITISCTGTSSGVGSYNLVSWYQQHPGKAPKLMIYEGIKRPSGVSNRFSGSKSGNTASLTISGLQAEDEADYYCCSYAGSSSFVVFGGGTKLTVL = 1.7
• 1-30 (antibody, V domains shown, also called variant 1-30) VH: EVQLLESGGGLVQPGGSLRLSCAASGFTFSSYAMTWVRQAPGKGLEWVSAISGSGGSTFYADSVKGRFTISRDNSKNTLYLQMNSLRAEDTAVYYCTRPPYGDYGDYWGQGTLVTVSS VL: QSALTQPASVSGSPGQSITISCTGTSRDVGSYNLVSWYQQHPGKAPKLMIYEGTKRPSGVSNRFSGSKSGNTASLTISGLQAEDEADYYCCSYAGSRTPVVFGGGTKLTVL = 5.6
• 1-42 (antibody, V domains shown, also called variant 1-42) VH: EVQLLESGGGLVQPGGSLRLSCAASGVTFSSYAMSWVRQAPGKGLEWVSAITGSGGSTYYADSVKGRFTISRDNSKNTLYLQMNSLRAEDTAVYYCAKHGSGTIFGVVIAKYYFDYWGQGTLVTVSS VL: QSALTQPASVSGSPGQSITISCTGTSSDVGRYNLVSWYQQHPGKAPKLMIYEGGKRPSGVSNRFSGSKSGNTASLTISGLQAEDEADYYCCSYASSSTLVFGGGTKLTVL = 1.4
• 1-28 (antibody, V domains shown, also called variant 1-28) VH: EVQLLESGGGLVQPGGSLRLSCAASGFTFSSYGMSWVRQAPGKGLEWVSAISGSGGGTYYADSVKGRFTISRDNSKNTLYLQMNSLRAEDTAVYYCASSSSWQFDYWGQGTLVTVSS VL: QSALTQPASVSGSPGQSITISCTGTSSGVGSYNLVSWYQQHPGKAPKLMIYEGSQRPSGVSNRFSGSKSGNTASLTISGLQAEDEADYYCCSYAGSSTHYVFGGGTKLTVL = 1.1
• 1-27 (antibody, V domains shown, also called variant 1-27) VH: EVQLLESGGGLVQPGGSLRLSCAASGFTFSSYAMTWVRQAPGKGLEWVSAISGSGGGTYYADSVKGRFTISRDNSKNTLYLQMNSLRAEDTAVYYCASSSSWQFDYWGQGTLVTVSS VL: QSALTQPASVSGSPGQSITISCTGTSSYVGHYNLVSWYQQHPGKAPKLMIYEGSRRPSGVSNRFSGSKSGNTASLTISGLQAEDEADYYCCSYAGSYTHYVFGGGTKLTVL = 1.3
• 1-23 (antibody, V domains shown, also called variant 1-23) VH: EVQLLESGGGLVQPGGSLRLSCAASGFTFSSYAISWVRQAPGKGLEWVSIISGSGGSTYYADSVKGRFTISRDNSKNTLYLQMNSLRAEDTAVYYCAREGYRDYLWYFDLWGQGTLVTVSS VL: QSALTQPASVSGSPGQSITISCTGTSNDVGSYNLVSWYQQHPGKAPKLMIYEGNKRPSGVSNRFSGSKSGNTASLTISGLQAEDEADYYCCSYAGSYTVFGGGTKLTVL = 1.6
• 1-47 (antibody, V domains shown, also called variant 1-47) VH: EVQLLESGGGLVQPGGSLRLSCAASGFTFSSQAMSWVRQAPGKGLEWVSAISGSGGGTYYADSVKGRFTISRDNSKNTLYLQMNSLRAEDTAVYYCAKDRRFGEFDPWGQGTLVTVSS VL: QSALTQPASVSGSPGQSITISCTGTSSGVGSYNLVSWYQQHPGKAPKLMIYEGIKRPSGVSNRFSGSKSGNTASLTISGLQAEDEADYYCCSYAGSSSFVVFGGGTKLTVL = 1.2
• 1-4 (antibody, V domains shown, also called variant 1-4) VH: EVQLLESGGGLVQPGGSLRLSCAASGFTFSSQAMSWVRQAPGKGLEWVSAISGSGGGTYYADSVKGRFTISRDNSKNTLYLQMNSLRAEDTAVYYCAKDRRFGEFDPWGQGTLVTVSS VL: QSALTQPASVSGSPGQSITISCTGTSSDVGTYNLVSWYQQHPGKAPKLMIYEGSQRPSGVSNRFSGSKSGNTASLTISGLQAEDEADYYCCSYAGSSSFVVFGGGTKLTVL = 0.9
• 1-24 (antibody, V domains shown, also called variant 1-24) VH: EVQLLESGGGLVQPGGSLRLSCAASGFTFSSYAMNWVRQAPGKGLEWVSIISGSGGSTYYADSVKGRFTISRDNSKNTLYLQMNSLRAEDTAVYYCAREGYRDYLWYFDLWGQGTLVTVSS VL: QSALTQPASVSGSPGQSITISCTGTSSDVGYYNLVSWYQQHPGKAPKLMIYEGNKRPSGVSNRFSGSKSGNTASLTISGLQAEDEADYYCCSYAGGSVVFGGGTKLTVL = 1.1
• 1-31 (antibody, V domains shown, also called variant 1-31) VH: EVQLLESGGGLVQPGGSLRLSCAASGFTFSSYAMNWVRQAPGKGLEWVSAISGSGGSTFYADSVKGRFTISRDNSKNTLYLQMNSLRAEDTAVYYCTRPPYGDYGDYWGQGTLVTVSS VL: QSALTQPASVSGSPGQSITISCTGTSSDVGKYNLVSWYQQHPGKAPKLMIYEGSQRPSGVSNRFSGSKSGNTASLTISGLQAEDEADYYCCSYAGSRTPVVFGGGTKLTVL = 15.7
